Tested on: Mycobacterium tuberculosis
Test: Antimycobacterial activity against Mycobacterium tuberculosis H37Rv ATCC 27294 assessed as bacterial growth inhibition incubated for 5 days under normoxic condition by resazurin microtiter assay
Format: functional
Conditions: H37Rv ATCC 27294, 120 h, time 5 day
Readout Type: MIC

Smiles Representation	Readout Type	Data Value
Cc1nc(OCc2ccc(OC(F)(F)F)cc2)c2nc([N+](=O)[O-])cn2c1C	MIC	> 32 µg/mL
O=c1c2nc([N+](=O)[O-])cn2ccn1Cc1cccc(C(F)(F)F)c1	MIC	0.063 µg/mL
Cc1cccc(Cn2ccn3cc([N+](=O)[O-])nc3c2=O)c1	MIC	0.063 µg/mL
O=C1CCn2cc([N+](=O)[O-])nc2N1Cc1ccccc1	MIC	> 32 µg/mL
CO[C@H]1/C=C/O[C@@]2(C)Oc3c(C)c(O)c4c(O)c(c(/C=N/N5CCN(C)CC5)c(O)c4c3C2=O)NC(=O)/C(C)=C\C=C\[C@H](C)[C@H](O)[C@@H](C)[C@@H](O)[C@@H](C)[C@H](OC(C)=O)[C@@H]1C	MIC	0.005 µg/mL
O=c1[nH]c(-c2ccccc2)cn2cc([N+](=O)[O-])nc12	MIC	> 32 µg/mL
Cc1cn2cc([N+](=O)[O-])nc2c(=O)n1Cc1ccc(OC(F)(F)F)cc1	MIC	> 32 µg/mL
O=C1c2nc([N+](=O)[O-])cn2CN1Cc1ccccc1	MIC	> 32 µg/mL

---

Assay: Cmax in CD-1 mouse at 20 mg/kg, po administered as DMSO/PEG400 formulation measured upto 24 hrs by LC-MS/MS analysis
Type: ADME, organism-based
Design: dose 20 mg/kg, time < 24 hrs, route po
Details: in vivo
# Cmax annotations
Readout Type: Cmax (ng/mL)

                      smiles_representation  readout_type  data_value
0  O=c1c2nc([N+](=O)[O-])cn2ccn1Cc1ccc(-c2ccc(OC(F)(F)F)cc2)cn1          Cmax        3600
1  O=c1c2nc([N+](=O)[O-])cn2ccn1Cc1cccc(C(F)(F)F)c1          Cmax        3400
2  O=c1c2nc([N+](=O)[O-])cn2ccn1Cc1ccc(OC(F)(F)F)cc1          Cmax        3300
3  O=c1c2nc([N+](=O)[O-])cn2ccn1Cc1ccc(-c2cccnc2)cc1          Cmax        4500
4  O=c1c2nc([N+](=O)[O-])cn2ccn1Cc1cccc(OC(F)(F)F)c1          Cmax        2900

---

Test: Metabolic stability in mouse microsomes assessed as compound remaining measured after 2 hrs
Type: ADME, Microsome
Details: read-out: Stability
Parameter: remaining at 2 h. Scope: all listed entries.
Readout Type: remaining at 2 h (%)

>>> print(df.to_string())
                      smiles_representation  bound_type  data_value
0  O=c1c2nc([N+](=O)[O-])cn2ccn1Cc1cccc(OC(F)(F)F)c1           =          97
1  O=c1c2nc([N+](=O)[O-])cn2ccn1Cc1ccc(OC(F)(F)F)cc1           >          99

---

Test: Half life in CD-1 mouse at 10 mg/kg, iv measured upto 48 hrs by LC/MS/MS analysis
Type: ADME, organism-based
Conditions: in vivo
Readout Type: half-life

>>> print(df.to_string())
                      smiles_representation  readout_type  data_value
0  O=[N+]([O-])c1cn2c(n1)OC[C@@H](OCc1ccc(OC(F)(F)F)cc1)C2     half-life       1.6 h

---

Test: Cmax in CD-1 mouse at 25 mg/kg, po measured upto 48 hrs by LC/MS/MS analysis
Type: ADME, organism-based
Design: time < 48 hrs, dose 25 mg/kg, route po
Conditions: in vivo
Readout Type: Cmax (ng/mL)

In [3]: df
Out[3]:
                      smiles_representation  data_value
0  O=[N+]([O-])c1cn2c(n1)OC[C@@H](OCc1ccc(OC(F)(F)F)cc1)C2        6000

---

Assay: Half life in CD-1 mouse at 5 mg/kg, iv administered as DMSO/PEG400 formulation measured upto 24 hrs by LC-MS/MS analysis
Format: ADME, organism-based
Details: in vivo
Please respond with 1 when measured half-life is strictly beneath 2 h, and with 0 in all other cases.

In [3]: df
Out[3]:
                      smiles_representation  group
0  O=c1c2nc([N+](=O)[O-])cn2ccn1Cc1cccc(C(F)(F)F)c1      1
1  O=c1c2nc([N+](=O)[O-])cn2ccn1Cc1ccc(OC(F)(F)F)cc1      0
2  O=c1c2nc([N+](=O)[O-])cn2ccn1Cc1cccc(OC(F)(F)F)c1      1
3  O=c1c2nc([N+](=O)[O-])cn2ccn1Cc1ccc(-c2cccnc2)cc1      1
4  O=c1c2nc([N+](=O)[O-])cn2ccn1Cc1ccc(-c2ccc(OC(F)(F)F)cc2)cn1      0

---

Assay: Solubility of compound in water at 0.1 M HCl at pH 1 by LC-UV analysis
Assay type: physicochemical
Conditions: 0.1 M HCl in water
Readout Type: solubility

>>> df
                      smiles_representation  readout_type  data_value
0  O=c1c2nc([N+](=O)[O-])cn2ccn1Cc1ccc(OC(F)(F)F)cc1    solubility      < 1 µM

---

Assay: Cmax in CD-1 mouse at 20 mg/kg, po administered as DMSO/PEG400/Cremophor RH40/water formulation measured upto 24 hrs by LC-MS/MS analysis
Type: ADME, organism-based
Set-up: dose 20 mg/kg, time < 24 hrs, route po
Details: in vivo
Readout Type: Cmax (ng/mL)

                      smiles_representation  data_value
0  O=c1[nH]c(-c2ccccc2)cn2cc([N+](=O)[O-])nc12       13000

---

Each entry below carries its reported kcat.
Tested on: Mycobacterium tuberculosis
Test: Substrate activity at Mycobacterium tuberculosis Ddn expressed in Escherichia coli BL21 (DE3) assessed as oxidation of F420H2 by measuring Kcat by spectrophotometric analysis
Readout Type: kcat

>>> df
                       smiles_representation             measured_target  readout_type   data_value
 0  O=c1c2nc([N+](=O)[O-])cn2ccn1Cc1ccc(-c2cccc(OC(F)(F)F)c2)nc1  Mycobacterium tuberculosis          kcat  1.3 10^-3/s
 1  O=c1[nH]c(-c2ccccc2)cn2cc([N+](=O)[O-])nc12  Mycobacterium tuberculosis          kcat  1.3 10^-3/s
 2  O=c1c2nc([N+](=O)[O-])cn2ccn1Cc1cncc(-c2ccc(OC(F)(F)F)cc2)c1  Mycobacterium tuberculosis          kcat  1.2 10^-2/s
 3  O=c1c2nc([N+](=O)[O-])cn2ccn1Cc1cncc(-c2cccc(OC(F)(F)F)c2)c1  Mycobacterium tuberculosis          kcat  1.4 10^-2/s
 4  Cc1nc(OCc2ccc(OC(F)(F)F)cc2)c2nc([N+](=O)[O-])cn2c1C  Mycobacterium tuberculosis          kcat    7 10^-4/s
 5  O=[N+]([O-])c1cn2c(n1)OC[C@@H](OCc1ccc(OC(F)(F)F)cc1)C2  Mycobacterium tuberculosis          kcat  9.3 10^-3/s
 6  Cc1ccc(Cn2ccn3cc([N+](=O)[O-])nc3c2=O)cc1  Mycobacterium tuberculosis          kcat  4.3 10^-3/s
 7  O=C(NCc1ccc(OC(F)(F)F)cc1)c1ncc([N+](=O)[O-])[nH]1  Mycobacterium tuberculosis          kcat  2.1 10^-4/s
 8  O=c1c2nc([N+](=O)[O-])cn2ccn1Cc1ccc(-c2cccc(OC(F)(F)F)c2)cc1  Mycobacterium tuberculosis          kcat  3.1 10^-3/s
 9  O=c1c2nc([N+](=O)[O-])cn2ccn1Cc1cccc(C(F)(F)F)c1  Mycobacterium tuberculosis          kcat  1.6 10^-2/s
10  O=c1c2nc([N+](=O)[O-])cn2ccn1Cc1ccc(N2CCCCC2)cc1  Mycobacterium tuberculosis          kcat  1.7 10^-3/s
11  Cc1c(C)n2cc([N+](=O)[O-])nc2c(=O)n1Cc1ccc(OC(F)(F)F)cc1  Mycobacterium tuberculosis          kcat  6.9 10^-3/s
12  O=c1c2nc([N+](=O)[O-])cn2ccn1Cc1cccc(OC(F)(F)F)c1  Mycobacterium tuberculosis          kcat  3.1 10^-3/s

---

Experiment: Half life in CD-1 mouse at 5 mg/kg, iv administered as DMSO/PEG400/Cremophor RH40/water formulation measured upto 24 hrs by LC-MS/MS analysis
Format: ADME, organism-based
Settings: in vivo
Readout Type: half-life (h)

                      smiles_representation  data_value
0  O=c1[nH]c(-c2ccccc2)cn2cc([N+](=O)[O-])nc12         1.2
